Molecular target: T1, human CD137 (human, UniProt Q07011 24-186)
T1 construct: Soluble analyte in the Biacore assay; also called 4-1BB; hCD137
T1 sequence (Q07011 24-186 limits assumed): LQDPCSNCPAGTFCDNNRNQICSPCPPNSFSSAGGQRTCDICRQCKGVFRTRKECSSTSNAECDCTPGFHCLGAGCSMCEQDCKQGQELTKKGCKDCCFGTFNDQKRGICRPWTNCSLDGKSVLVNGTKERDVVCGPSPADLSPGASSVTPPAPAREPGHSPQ
Assay: SPR Biacore T200, IgG captured on protein A, antigen as analyte, 25 C;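 note: antigens flowed over a CM3 chip for 120 s association, KD derived from ka and kd, running buffer (ACES, NaCl, Tween20, pH 7.4) served as blank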
Value kind: koff (s⁻¹)
All answers are understood in s⁻¹, so give the number only.

## Input Tell me measured koff for dBBDu_189 / dBBDu_L126 (antibody, human IgG1, V domains shown, Tested as IgG (human IgG1 constant region, kappa light chain); also called dBBDu189/L126) VH: QVQLVESGGGLVQPGRSLRLSCAASGFTFSNAWMHWVRQAPGKGLEWIAQIKDRSNQYATYYAPSVKGRFTISRDDSKNSIYLQMNSLKTEDTAVYYCHYVHYAQASSLLPSFGVDAWGQGTTVTVSS VL: DIVMTQSPLSLPVTPGEPASISCRTSEELLHINRYIFLHWYQQKPGQAPRLLIYKVQNRFSGVPDRFSGSGSGTDFTLKISRVEAEDVGVYYCAQGSAVPFTFGQGTKLEIK please.
## Output 0.000688

## Input Query koff for dBBDu_189 / dBBDu_L119 (antibody, human IgG1, V domains shown, Tested as IgG (human IgG1 constant region, kappa light chain); also called dBBDu189/L119) VH: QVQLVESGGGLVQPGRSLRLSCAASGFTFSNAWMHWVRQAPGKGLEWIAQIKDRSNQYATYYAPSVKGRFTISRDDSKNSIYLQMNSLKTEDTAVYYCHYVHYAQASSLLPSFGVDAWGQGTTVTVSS VL: DIVMTQSPLSLPVTPGEPASISCTASQELVHINRFIFLHWYQQKPGQAPRLLIYKVSNRFIGVPDRFSGSGSGTDFTLKISRVEAEDVGVYYCAQGSQVPFTFGQGTKLEIK
## Output 0.000402

Sourced from patent US20240270846A1
